measured-attribute: IC50 (nM)
Report the value in nM with no unit label.

Entry "N=C(N)c1ccc(/N=N/Nc2ccc(C(=N)N)cc2)cc1" , tested on Furin (Homo sapiens), has a reported IC50 of 580

---

tested-on: UniProtKB P0DTD1
protocol-summary: Inhibition of C-terminal His-tagged SARS-CoV-2 PLpro BetaCoV/Wuhan/WIV04/2019 expressed in Escherichia coli BL21(DE3) using ISG-AMC substrate incubated for 3 hrs by FRET analysis
measured-attribute: IC50 (nM)
# output: bare number, implied unit nM

The molecule identified as "CCOC(=O)/C=C/[C@H](C[C@@H]1CCNC1=O)NC(=O)[C@H](Cc1ccccc1)NC(=O)[C@H](N)Cc1ccccc1" registered its IC50 at 60

Value of IC50 reported for the molecule "CCOC(=O)/C=C/[C@H](C[C@@H]1CCNC1=O)NC(=O)[C@H](Cc1ccccc1)NC(=O)[C@@H](Cc1ccc(F)cc1)NC(=O)OC(C)(C)C" is 60

Source of measurements: ChEMBL document CHEMBL5500424
